Listed below: Papp values for each entry.
# assay: in vitro
# run-parameters: PAMPA, PAMPA-BBB Pe, Table S2: compounds exhibiting moderate to high PAMPA-BBB permeability
Entry rule: numbers only, all in ×10⁻⁶ cm/s.

Some entries whose results are on file:
compound: CCCC[C@@H](C)/C=C(C)/C=C(\C)C(=O)NC1=C[C@@](O)(/C=C/C=C/C=C/C(=O)NC2=C(O)CCC2=O)[C@@H]2O[C@@H]2C1=O [MANUMYCIN A]
result-unit: ×10⁻⁶ cm/s
recorded-number: 64
--
compound: C[C@]12CCC(=O)C=C1[C@@H]1C[C@@H]1[C@H]1[C@@H]3[C@@H]4C[C@@H]4[C@@]4(CCC(=O)O4)[C@@]3(C)CC[C@@H]12 [DROSPIRENONE]
result-unit: ×10⁻⁶ cm/s
recorded-number: 169
--
compound: O=c1c(O)c(-c2ccccc2)oc2ccccc12 [FLAVONOL]
result-unit: ×10⁻⁶ cm/s
recorded-number: 181

// next item, Papp requested
Please report the recorded Papp for COc1cc(O)c(C(C)=O)c(OC)c1 [XANTHOXYLINE] .
149

====

# assay: in vitro
# run-parameters: PAMPA, PAMPA-BBB Pe(10^-6 cm/sec), Table S3: compounds exhibiting low PAMPA-BBB permeability
metric: Papp

molecule: O=C(/C=C/c1ccc(O)c(O)c1)c1ccc(O)cc1O
Papp: < 10 nm/s
--
molecule: C[C@@H]1CC[C@]2(C)CC[C@]3(C)C(=CC(=O)C4[C@@]5(C)CC[C@@H](O)[C@](C)(C(=O)O)C5CC[C@]43C)C2[C@H]1C (some centres unmarked)
Papp: < 10 nm/s
--
molecule: O=C1c2c(O)cc(O)cc2O[C@H](c2cc(O)c(O)c(O)c2)[C@H]1O [DIHYDROMYRICETIN]
Papp: < 10 nm/s
--
molecule: O=C(Nc1ccccc1C(=O)O)c1ccccc1 [[…] B]
Papp: 19 nm/s

Please report the recorded Papp for "C[C@@H]1O[C@@H](O[C@H]2[C@H](Oc3cc(O)c4c(=O)cc(-c5ccc(O)cc5)oc4c3)O[C@H](CO)[C@@H](O)[C@@H]2O)[C@H](O)[C@H](O)[C@H]1O" .
< 10 nm/s

Please report the recorded Papp for O=C(O)Cc1c[nH]c2ccc(O)cc12 [HYDROXYIN[…]] .
< 10 nm/s

Please report the recorded Papp for Nc1nc2c(ncn2[C@@H]2O[C@H](COP(=O)(O)OP(=O)(O)O)[C@@H](O)[C@H]2O)c(=O)[nH]1 [Guanosine pyrophosphate] .
< 10 nm/s

Please report the recorded Papp for O=c1ccn([C@@H]2O[C@H](COP(=O)(O)O)[C@@H](O)[C@H]2O)c(=O)[nH]1 [URIDINE PHOSPHATE] .
< 10 nm/s

Please report the recorded Papp for "OC[C@H]1O[C@@H](Oc2cc(O)cc(/C=C/c3ccc(O)cc3)c2)[C@H](O)[C@@H](O)[C@@H]1O" .
< 10 nm/s

Please report the recorded Papp for O=C(/C=C/c1ccc(O)cc1)OC[C@H]1O[C@@H](Oc2c(-c3ccc(O)cc3)oc3cc(O)cc(O)c3c2=O)[C@H](O)[C@@H](O)[C@@H]1O [TILIROSIDE] .
< 10 nm/s

Please report the recorded Papp for "CC(=O)CCc1ccc(O)cc1" .
41 nm/s

Please report the recorded Papp for "COC(=O)/C=C/C(C)=C/C=C/C(C)=C/C=C/C=C(C)/C=C/C=C(C)/C=C/C(=O)O" .
42 nm/s

Please report the recorded Papp for "COC(=O)C1=CO[C@@H](O[C@@H]2O[C@H](CO)[C@@H](O)[C@H](O)[C@H]2O)[C@@H]2[C@@H](C)[C@@H](O)C[C@H]12" .
< 10 nm/s

Please report the recorded Papp for CNc1ccc(C(=O)CC(O)CCC(C)C2OC(=O)CC(O)CC(=O)CC(O)CC(O)CC(O)CC(O)CC3(O)CC(O)C(C(=O)OC)C(CC(O[C@@H]4O[C@H](C)[C@@H](O)[C@H](N)[C@@H]4O)/C=C/C=C/C=C/C=C/C=C/C=C/C=C/C2C)O3)cc1 (some centres unmarked) [M[…]] .
< 10 nm/s

====

Listed below: Papp values for each entry.
# assay: in vitro
# run-parameters: PAMPA, PAMPA-BBB Pe, Table S2: compounds exhibiting moderate to high PAMPA-BBB permeability
Entry rule: numbers only, all in ×10⁻⁶ cm/s.

compound: CC(=O)OCC=Cc1ccccc1 [CINNAMYL ACETATE]
metric: Papp
recorded-number: 88
--
compound: COc1cc(-c2oc3cc(O)ccc3c(=O)c2O)ccc1O [GERALDOL]
metric: Papp
recorded-number: 124
--
compound: C=C[C@H]1C[N@@]2CC[C@H]1C[C@@H]2[C@@H](O)c1ccnc2ccccc12 [CINCHONINE]
metric: Papp
recorded-number: 22
--
compound: COc1ccc2[nH]c3c(c2c1)CCN=C3C [6-METHOXYHARMALANE]
metric: Papp
recorded-number: 49
--
compound: CC(=O)c1ccc[nH]1 [METHYL PYRROL-2-YL KETONE]
metric: Papp
recorded-number: 28

Please report the recorded Papp for CC(C)=CCC[C@@H](C)[C@H]1CC[C@@]2(C)C3=C(CC[C@]12C)[C@@]1(C)CC[C@H](O)C(C)(C)[C@@H]1CC3 [LANOSTEROL] .
13

Please report the recorded Papp for "O=c1cc(N2CCOCC2)oc2c(-c3cccc4c3sc3ccccc34)cccc12" .
102

Please report the recorded Papp for CC(=O)O[C@@H]1C[C@@]2(C)[C@H](c3ccoc3)C[C@H]3O[C@]32[C@]2(C)C(=O)C(O)=C3C(C)(C)C(=O)C=C[C@]3(C)C12 (stereo partly drawn) [NCGC00179158-03] .
18

====

Listed below: Papp values for each entry.
# assay: in vitro
# run-parameters: PAMPA, PAMPA-BBB Pe(10^-6 cm/sec), Table S3: compounds exhibiting low PAMPA-BBB permeability

Some entries whose results are on file:
compound: CC(C)Nc1nc(N)nc(Cl)n1 [DEETHYLATRAZINE]
Papp: 6.8 ×10⁻⁶ cm/s
//
compound: O=c1c(O)cc([C@H]2Oc3cc(O)cc(O)c3C[C@H]2O)cc2c([C@H]3Oc4cc(O)cc(O)c4C[C@@H]3O)cc(O)c(O)c12 [THEAFLAVINE]
Papp: < 1 ×10⁻⁶ cm/s
//
compound: O=c1c(-c2ccc(O)cc2)coc2c([C@@H]3O[C@H](CO)[C@@H](O)[C@H](O)[C@H]3O)c(O)ccc12 [PUERARIN]
Papp: < 1 ×10⁻⁶ cm/s
//
compound: CCCCC[C@H](O)/C=C/C1=C(CCCCCCC(=O)O)C(=O)CC1 [PROSTAGLANDIN B1]
Papp: < 1 ×10⁻⁶ cm/s
//
compound: Cc1ncc(CO)c(CO)c1O [[…]]
Papp: < 1 ×10⁻⁶ cm/s

Please report the recorded Papp for COc1ccc2[nH]cc(CC(=O)O)c2c1 [5-METHOXYIN[…]] .
< 1 ×10⁻⁶ cm/s

Please report the recorded Papp for COc1ccc(-c2cc(=O)c3c(O)c(OC)c(O[C@@H]4O[C@H](CO[C@@H]5O[C@@H](C)[C@H](O)[C@@H](O)[C@H]5O)[C@@H](O)[C@H](O)[C@H]4O)cc3o2)cc1 [PECTOLINARIN] .
< 1 ×10⁻⁶ cm/s

Please report the recorded Papp for COC1=C[C@@H]2[C@@H]3Cc4ccc(OC)c(O)c4[C@]2(CCN3C)CC1=O [SINOMENINE] .
2.2 ×10⁻⁶ cm/s

====

Listed below: AC50 values for each entry.
# Test system: GFP-labeled iPSC-derived human cortical glutamatergic neurons
# assay: cells
# run-parameters: Neuron, 48 h, read-out: Viability AC50 (48 h)
Entry rule: numbers only, all in µM.

compound: O=c1c(O)c(-c2ccccc2)oc2ccccc12 [3-Hydroxyflavone]
result-unit: µM
AC50: 1.83
--
compound: COc1ccc2c(c1OC)C(=O)O[C@@H]2[C@H]1c2c(cc3c(c2OC)OCO3)CCN1C [Noscapine, reference compound]
result-unit: µM
AC50: 11.6
--
compound: O=c1oc2c(O)c(O)cc3c(=O)oc4c(O)c(O)cc1c4c23
result-unit: µM
AC50: 4
--
compound: CC1=C(O)C(=O)C=C2C1=CC=C1[C@@]2(C)CC[C@@]2(C)[C@@H]3C[C@](C)(C(=O)O)CC[C@]3(C)CC[C@]12C
result-unit: µM
AC50: 5.47
--
compound: C=CC[C@@H]1/C=C(\C)C[C@H](C)C[C@H](OC)[C@H]2O[C@@](O)(C(=O)C(=O)N3CCCC[C@H]3C(=O)O[C@H](/C(C)=C/[C@@H]3CC[C@@H](O)[C@H](OC)C3)[C@H](C)[C@@H](O)CC1=O)[C@H](C)C[C@@H]2OC [Tacrolimus, reference compound]
result-unit: µM
AC50: 4.19

// next item, AC50 requested
Please report the recorded AC50 for "Cc1nccc2c1[nH]c1ccccc12" .
12.2
